Source of measurements: patent US8912209B2

procedure-summary: Stability assay in human plasma
Assay type: in vitro ADME
recorded-conditions: 1 μM in human plasma, LC-MS/MS; read-out: t½ human plasma
What half-life at 1 μM was measured for each of the following?
Form entry: value (min) — number only.

Query: Name the reported half-life at 1 μM value associated with the compound CC(N)c1ccc(C(=O)Nc2ccncc2F)cc1-c1cccc(C(=O)OCC2CCCO2)c1 (stereo not shown)
Result: 1.9

Query: Name the reported half-life at 1 μM value associated with the compound COC(=O)COc1cccc(-c2cc(C(=O)Nc3ccncc3)ccc2CN)c1
Result: 1.9

Query: Name the reported half-life at 1 μM value associated with the compound CC(N)c1ccc(C(=O)Nc2ccncc2F)cc1-c1cccc(C(=O)OCC2CCCCO2)c1 (stereo not shown)
Result: 9.8

Query: Name the reported half-life at 1 μM value associated with the compound CCSC(=O)c1cccc(-c2cc(C(=O)Nc3ccncc3)ccc2CN)c1
Result: 44
